- Study system: C5aR (Homo sapiens)
- Construct: U937 cells are a monocytic cell line which express C5aR
- Assay name: chemotaxis assay (C5aR mediated migration)
- Experimental context: migration of U937 or neutrophil cells toward C5a (0.03 nM), 1.5 hours at 37° C., read-out: Mig IC50
- Protocol: U937 cells are a monocytic cell line which express C5aR, and are available from ATCC (VA). […] Optionally, compounds may be further assayed for their ability to inhibit chemotaxis in cells. […] The chambers are incubated 1.5 hours at 37° C., and the number of cells in the lower chamber quantified either by direct cell counts in five high powered fields per well or by the CyQuant assay (Molecular Probes), a fluorescent dye method that measures nucleic acid content and microscopic observation.
pIC50: −log10 of the molar value.
Listed compounds paired with reported pIC50

Example entries begin here.
{"Compound": "CCc1cccc(CC)c1-n1nc2c(c1-c1ccc(Cl)c3[nH]ccc13)CN(c1ncc(C(F)(F)F)cn1)CC2", "Study system": "C5aR (Homo sapiens)", "Experimental endpoint": "pIC50", "Result": "> 8.30"}
{"Compound": "CCc1cccc(CC)c1-n1nc2c(c1-c1ccc(Cl)c3[nH]ccc13)CN(c1ncc(Cl)c(OC)n1)CC2", "Study system": "C5aR (Homo sapiens)", "Experimental endpoint": "pIC50", "Result": "7.30 to 8.30"}
{"Compound": "CCc1cccc(CC)c1-n1nc2c(c1-c1ccc3[nH]ccc3c1)CN(C(C)C(C)C)CC2 (stereo not shown)", "Study system": "C5aR (Homo sapiens)", "Experimental endpoint": "pIC50", "Result": "7.30 to 8.30"}

Now let's try a different one.
input: Value lookup for pIC50; key = COc1cnc(N2CCc3nn(-c4c(C)cccc4C)c(-c4ccc(Cl)c5[nH]ccc45)c3C2)nc1
output: 7.30 to 8.30

====

// values below are reported pIC50
- Study system: C5aR (Homo sapiens, UniProt P21730)
- Construct: U937 cells are a monocytic cell line which express C5aR
- Sequence (P21730 whole entry): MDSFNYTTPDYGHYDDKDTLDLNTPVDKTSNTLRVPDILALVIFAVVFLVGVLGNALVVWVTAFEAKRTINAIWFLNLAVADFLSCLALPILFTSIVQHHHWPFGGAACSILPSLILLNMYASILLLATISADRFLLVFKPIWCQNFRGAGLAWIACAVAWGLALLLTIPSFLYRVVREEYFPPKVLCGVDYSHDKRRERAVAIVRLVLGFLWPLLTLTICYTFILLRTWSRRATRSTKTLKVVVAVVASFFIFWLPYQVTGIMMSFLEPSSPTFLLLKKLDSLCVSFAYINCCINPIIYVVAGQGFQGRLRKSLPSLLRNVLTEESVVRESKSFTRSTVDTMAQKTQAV
- Assay name: chemotaxis assay (C5aR mediated migration)
- Experimental context: migration of U937 or neutrophil cells toward C5a (0.03 nM), 1.5 hours at 37° C., read-out: Mig IC50
pIC50: −log10 of the molar value.

// below: answered molecules
{"Structure smiles": "CCc1cccc(CC)c1-n1nc2c(c1-c1ccc(Cl)c3[nH]ccc13)CN(c1ccc(C(C)C)cn1)CC2", "pIC50": "> 8.30"}
{"Structure smiles": "CCc1cccc(CC)c1-n1nc2c(c1-c1ccc(C(C)(C)O)c3[nH]ccc13)CN(c1ncc(C(F)(F)F)cc1F)CC2", "pIC50": "6.30 to 7.30"}
{"Structure smiles": "Cc1cccc(OCC(C)C)c1-n1nc2c(c1-c1ccc3[nH]ccc3c1)CN(Cc1ccccc1C(F)(F)F)CC2", "pIC50": "> 8.30"}

Turning to the following molecule.
input: Need pIC50 of CCc1cccc(CC)c1-n1nc2c(c1-c1ccc(OC)c3[nH]ccc13)CN(c1ncc(C(F)(F)F)cc1F)CC2 , thanks.
output: 7.30 to 8.30

====

- Study system: C5aR (Homo sapiens)
- Construct: U937 cells are a monocytic cell line which express C5aR
- Assay name: chemotaxis assay (C5aR mediated migration)
- Experimental context: migration of U937 or neutrophil cells toward C5a (0.03 nM), 1.5 hours at 37° C., read-out: Mig IC50
Experimental endpoint: IC50

{"Structure smiles": "CCc1cccc(CC)c1-n1nc2c(c1-c1ccc(Cl)c3[nH]ccc13)CN(c1ncc(C)c(C(=O)O)n1)CC2", "Study system": "C5aR (Homo sapiens)", "IC50": "50 to 500 nM"}
{"Structure smiles": "CCc1cccc(CC)c1-n1nc2c(c1-c1cc(F)c(F)c3[nH]ccc13)CN(c1ncc(C(F)(F)F)cn1)CC2", "Study system": "C5aR (Homo sapiens)", "IC50": "5 to 50 nM"}
{"Structure smiles": "Cc1cccc(C)c1-n1nc2c(c1-c1ccc3[nH]ncc3c1)CN(c1ncc(Cl)cc1Cl)CC2", "Study system": "C5aR (Homo sapiens)", "IC50": "> 500 nM"}
{"Structure smiles": "CCc1cccc(CC)c1-n1nc2c(c1-c1ccc(F)c3[nH]ncc13)CN(c1ncc(C(F)(F)F)cc1F)CC2", "Study system": "C5aR (Homo sapiens)", "IC50": "50 to 500 nM"}
{"Structure smiles": "Cc1cccc(C)c1-n1nc2c(c1-c1cc(F)c3[nH]ccc3c1)CN(c1ncc(Cl)cc1Cl)CC2", "Study system": "C5aR (Homo sapiens)", "IC50": "50 to 500 nM"}
{"Structure smiles": "CCc1cccc(CC)c1-n1nc2c(c1-c1c(F)cc(C)c3[nH]ccc13)CN(c1ncc(C(C)C)cc1F)CC2", "Study system": "C5aR (Homo sapiens)", "IC50": "< 5 nM"}

input: Value wanted: IC50 (C5aR (Homo sapiens)) of entry CCc1cccc(CC)c1-n1nc2c(c1-c1ccc(CO)c3[nH]ccc13)CN(c1ccc(C(F)(F)F)cn1)CC2
output: < 5 nM

input: Please do the same for CCc1cccc(CC)c1-n1nc2c(c1-c1ccc(Cl)c3[nH]ccc13)CN(c1nc(C)cc(C)n1)CC2 as well.
output: < 5 nM

input: Would you kindly repeat that for CCc1cccc(CC)c1-n1nc2c(c1-c1ccc(F)c3[nH]ccc13)CN(c1ncc(Cl)cn1)CC2 ?
output: < 5 nM

input: How about this compound: CCc1cccc(CC)c1-n1nc2c(c1-c1ccc3[nH]ccc3c1)CN(C1CCCC1)CC2
output: 5 to 50 nM

input: Now the compound CCc1cccc(CC)c1-n1nc2c(c1-c1cc(F)c(OC)c3[nH]cnc13)CN(c1ncc(C(F)(F)F)cn1)CC2
output: < 5 nM

====

# IC50 per entry
- Study system: C5aR (Homo sapiens)
- Construct: U937 cells are a monocytic cell line which express C5aR
- Assay name: chemotaxis assay (C5aR mediated migration)
- Experimental context: migration of U937 or neutrophil cells toward C5a (0.03 nM), 1.5 hours at 37° C., read-out: Mig IC50

# annotated cases, reported IC50 shown
{"Structure smiles": "Cc1cccc(C)c1-n1nc2c(c1-c1cc(C)c3[nH]ccc3c1)CN(c1ncc(Cl)cc1Cl)CC2", "IC50": "0.05 to 0.5 µM"}
{"Structure smiles": "CCc1cccc(CC)c1-n1nc2c(c1-c1ccc(F)c3[nH]ccc13)CN(c1ncc(C(F)(F)F)cn1)CC2", "IC50": "< 0.005 µM"}
{"Structure smiles": "CCc1cccc(CC)c1-n1nc2c(c1-c1ccnc3[nH]ccc13)CN(c1ncc(C(F)(F)F)cn1)CC2", "IC50": "0.005 to 0.05 µM"}
{"Structure smiles": "CCc1cccc(CC)c1-n1nc2c(c1-c1ccc(Cl)c3[nH]ccc13)CN(c1ncc(F)cc1Cl)CC2", "IC50": "< 0.005 µM"}

input: Data request, read-out IC50, for CCc1cccc(CC)c1-n1nc2c(c1-c1cc(F)c(CO)c3[nH]cnc13)CN(c1ncc(C(F)(F)F)cn1)CC2
output: < 0.005 µM

====

- Study system: C5aR (Homo sapiens)
- Construct: U937 cells are a monocytic cell line which express C5aR; host or cells: U937 cells (cAMP treated) or isolated neutrophils
- Assay name: chemotaxis assay (C5aR mediated migration)
- Assay type: cell-based
- Experimental context: migration of U937 or neutrophil cells toward C5a (0.03 nM), 1.5 hours at 37° C., read-out: Mig IC50
IC50 by entry:

{"Compound": "CCc1cccc(CC)c1-n1nc2c(c1-c1cc(F)c(C)c3[nH]ccc13)CN(c1ncc(C(C)C)cn1)CC2 [Example 1.115]", "Result": "< 5 nM"}

input: Which measured IC50 value corresponds to CCc1cccc(CC)c1-n1nc2c(c1-c1c(F)cnc3[nH]ccc13)CN(c1ncc(C(F)(F)F)cn1)CC2 [Example 1.014] ?
output: 5 to 50 nM

input: Try this compound too: CCc1cccc(CC)c1-n1nc2c(c1-c1cc(F)c(OC)c3[nH]ccc13)C(=O)N(c1ncc(C(F)(F)F)cn1)CC2 [Example 1.033]
output: 50 to 500 nM
